assay: Micafungin concentrations in cerebrospinal fluid of infants with Candida meningitis (HPLC); format: in vivo; details: human, cerebrospinal fluid, iv, 15 mg/kg/day, Patient 2, dose 15 mg/kg/day iv; HPLC; read-out: CSF values after 1 h
*1 amine or outer side, *2 acyl side, *3 side chain or, on linkers, in order; H or OH if unused. Where a SMILES comes first, the peptide text is derived from it. Bridges are numbered along the chain shown (N, C = ends). [ ]: non-standard residue; d: D form. The star is where a group is joined. hTyr(3S-OH,4S-OH,3'-OSO3H) = N[C@H](C(=O)O)[C@H](O)[C@@H](O)c1ccc(O)c(OS(=O)(=O)O)c1; Orn(4R-OH,5R-OH) = O=C([C@H](C[C@@H](O)[C@@H](O)N[*:3])N[*:1])[*:2]; Pro(3S-OH,4S-Me) = C[C@H]1CN[C@H](C(=O)O)[C@H]1O; X1 = CCCCCOc1ccc(-c2cc(-c3ccc(C(=O)*)cc3)no2)cc1; Gln(3R-OH) = NC(=O)C[C@@H](O)[C@H](N)C(=O)O; Hyp = O=C(O)[C@@H]1C[C@@H](O)CN1
endpoint: level at 1 h
Respond with the figure and its unit, in that order.

Tell me its level at 1 h given CCCCCOc1ccc(-c2cc(-c3ccc(C(=O)N[C@H]4C[C@@H](O)[C@@H](O)NC(=O)[C@@H]5[C@@H](O)[C@@H](C)CN5C(=O)[C@H]([C@H](O)CC(N)=O)NC(=O)[C@H]([C@H](O)[C@@H](O)c5ccc(O)c(OS(=O)(=O)O)c5)NC(=O)[C@@H]5C[C@@H](O)CN5C(=O)[C@H]([C@@H](C)O)NC4=O)cc3)no2)cc1 [micafungin] (X1-[Orn(4R-OH,5R-OH)]T[Hyp][hTyr(3S-OH,4S-OH,3'-OSO3H)][Gln(3R-OH)][Pro(3S-OH,4S-Me)]; lactam 1-C) as the entry.
1100 ng/mL

----------
test: Micafungin concentrations in cerebrospinal fluid of infants with Candida meningitis (HPLC); assay type: in vivo; details: human, CSF (ratio to plasma), iv, 10 mg/kg/day, Patient 2, dose 10 mg/kg/day iv; read-out: CSF/plasma ratio after 1 h
*1 amine or outer side, *2 acyl side, *3 side chain or, on linkers, in order; H or OH if unused. Where a SMILES comes first, the peptide text is derived from it. Bridges are numbered along the chain shown (N, C = ends). [ ]: non-standard residue; d: D form. The star is where a group is joined. hTyr(3S-OH,4S-OH,3'-OSO3H) = N[C@H](C(=O)O)[C@H](O)[C@@H](O)c1ccc(O)c(OS(=O)(=O)O)c1; Orn(4R-OH,5R-OH) = O=C([C@H](C[C@@H](O)[C@@H](O)N[*:3])N[*:1])[*:2]; Pro(3S-OH,4S-Me) = C[C@H]1CN[C@H](C(=O)O)[C@H]1O; X1 = CCCCCOc1ccc(-c2cc(-c3ccc(C(=O)*)cc3)no2)cc1; Gln(3R-OH) = NC(=O)C[C@@H](O)[C@H](N)C(=O)O; Hyp = O=C(O)[C@@H]1C[C@@H](O)CN1
endpoint: Kp at 1 h
In your answer, state the number alone without any accompanying words.

Tell me its Kp at 1 h given CCCCCOc1ccc(-c2cc(-c3ccc(C(=O)N[C@H]4C[C@@H](O)[C@@H](O)NC(=O)[C@@H]5[C@@H](O)[C@@H](C)CN5C(=O)[C@H]([C@H](O)CC(N)=O)NC(=O)[C@H]([C@H](O)[C@@H](O)c5ccc(O)c(OS(=O)(=O)O)c5)NC(=O)[C@@H]5C[C@@H](O)CN5C(=O)[C@H]([C@@H](C)O)NC4=O)cc3)no2)cc1 [micafungin] (X1-[Orn(4R-OH,5R-OH)]T[Hyp][hTyr(3S-OH,4S-OH,3'-OSO3H)][Gln(3R-OH)][Pro(3S-OH,4S-Me)]; lactam 1-C) as the entry.
0.03

----------
test: Micafungin concentrations in cerebrospinal fluid of infants with Candida meningitis (HPLC); type: in vivo; settings: human, CSF (ratio to plasma), iv, 15 mg/kg/day, Patient 2, dose 15 mg/kg/day iv; read-out: CSF/plasma ratio after 8 h
*1 amine or outer side, *2 acyl side, *3 side chain or, on linkers, in order; H or OH if unused. Where a SMILES comes first, the peptide text is derived from it. Bridges are numbered along the chain shown (N, C = ends). [ ]: non-standard residue; d: D form. The star is where a group is joined. hTyr(3S-OH,4S-OH,3'-OSO3H) = N[C@H](C(=O)O)[C@H](O)[C@@H](O)c1ccc(O)c(OS(=O)(=O)O)c1; Orn(4R-OH,5R-OH) = O=C([C@H](C[C@@H](O)[C@@H](O)N[*:3])N[*:1])[*:2]; Pro(3S-OH,4S-Me) = C[C@H]1CN[C@H](C(=O)O)[C@H]1O; X1 = CCCCCOc1ccc(-c2cc(-c3ccc(C(=O)*)cc3)no2)cc1; Gln(3R-OH) = NC(=O)C[C@@H](O)[C@H](N)C(=O)O; Hyp = O=C(O)[C@@H]1C[C@@H](O)CN1
endpoint: Kp at 8 h
In your answer, state the number alone without any accompanying words.

Tell me its Kp at 8 h given CCCCCOc1ccc(-c2cc(-c3ccc(C(=O)N[C@H]4C[C@@H](O)[C@@H](O)NC(=O)[C@@H]5[C@@H](O)[C@@H](C)CN5C(=O)[C@H]([C@H](O)CC(N)=O)NC(=O)[C@H]([C@H](O)[C@@H](O)c5ccc(O)c(OS(=O)(=O)O)c5)NC(=O)[C@@H]5C[C@@H](O)CN5C(=O)[C@H]([C@@H](C)O)NC4=O)cc3)no2)cc1 [micafungin] (X1-[Orn(4R-OH,5R-OH)]T[Hyp][hTyr(3S-OH,4S-OH,3'-OSO3H)][Gln(3R-OH)][Pro(3S-OH,4S-Me)]; lactam 1-C) as the entry.
0.07

----------
experiment: Micafungin concentrations in cerebrospinal fluid of infants with Candida meningitis (HPLC); type: in vivo; conditions: human, cerebrospinal fluid, iv, 7 mg/kg/day, Patient 1, dose 7 mg/kg/day iv; HPLC; read-out: CSF values after 8 h
*1 amine or outer side, *2 acyl side, *3 side chain or, on linkers, in order; H or OH if unused. Where a SMILES comes first, the peptide text is derived from it. Bridges are numbered along the chain shown (N, C = ends). [ ]: non-standard residue; d: D form. The star is where a group is joined. hTyr(3S-OH,4S-OH,3'-OSO3H) = N[C@H](C(=O)O)[C@H](O)[C@@H](O)c1ccc(O)c(OS(=O)(=O)O)c1; Orn(4R-OH,5R-OH) = O=C([C@H](C[C@@H](O)[C@@H](O)N[*:3])N[*:1])[*:2]; Pro(3S-OH,4S-Me) = C[C@H]1CN[C@H](C(=O)O)[C@H]1O; X1 = CCCCCOc1ccc(-c2cc(-c3ccc(C(=O)*)cc3)no2)cc1; Gln(3R-OH) = NC(=O)C[C@@H](O)[C@H](N)C(=O)O; Hyp = O=C(O)[C@@H]1C[C@@H](O)CN1
endpoint: level at 8 h (ng/mL)
Reply with just the number (in ng/mL).

Tell me its level at 8 h given CCCCCOc1ccc(-c2cc(-c3ccc(C(=O)N[C@H]4C[C@@H](O)[C@@H](O)NC(=O)[C@@H]5[C@@H](O)[C@@H](C)CN5C(=O)[C@H]([C@H](O)CC(N)=O)NC(=O)[C@H]([C@H](O)[C@@H](O)c5ccc(O)c(OS(=O)(=O)O)c5)NC(=O)[C@@H]5C[C@@H](O)CN5C(=O)[C@H]([C@@H](C)O)NC4=O)cc3)no2)cc1 [micafungin] (X1-[Orn(4R-OH,5R-OH)]T[Hyp][hTyr(3S-OH,4S-OH,3'-OSO3H)][Gln(3R-OH)][Pro(3S-OH,4S-Me)]; lactam 1-C) as the entry.
150

----------
assay: Micafungin concentrations in cerebrospinal fluid of infants with Candida meningitis (HPLC); assay type: in vivo; details: human, CSF (ratio to plasma), iv, 10 mg/kg/day, Patient 1, dose 10 mg/kg/day iv; read-out: CSF/plasma ratio before infusion
*1 amine or outer side, *2 acyl side, *3 side chain or, on linkers, in order; H or OH if unused. Where a SMILES comes first, the peptide text is derived from it. Bridges are numbered along the chain shown (N, C = ends). [ ]: non-standard residue; d: D form. The star is where a group is joined. hTyr(3S-OH,4S-OH,3'-OSO3H) = N[C@H](C(=O)O)[C@H](O)[C@@H](O)c1ccc(O)c(OS(=O)(=O)O)c1; Orn(4R-OH,5R-OH) = O=C([C@H](C[C@@H](O)[C@@H](O)N[*:3])N[*:1])[*:2]; Pro(3S-OH,4S-Me) = C[C@H]1CN[C@H](C(=O)O)[C@H]1O; X1 = CCCCCOc1ccc(-c2cc(-c3ccc(C(=O)*)cc3)no2)cc1; Gln(3R-OH) = NC(=O)C[C@@H](O)[C@H](N)C(=O)O; Hyp = O=C(O)[C@@H]1C[C@@H](O)CN1
endpoint: Kp
In your answer, state the number alone without any accompanying words.

Tell me its Kp given CCCCCOc1ccc(-c2cc(-c3ccc(C(=O)N[C@H]4C[C@@H](O)[C@@H](O)NC(=O)[C@@H]5[C@@H](O)[C@@H](C)CN5C(=O)[C@H]([C@H](O)CC(N)=O)NC(=O)[C@H]([C@H](O)[C@@H](O)c5ccc(O)c(OS(=O)(=O)O)c5)NC(=O)[C@@H]5C[C@@H](O)CN5C(=O)[C@H]([C@@H](C)O)NC4=O)cc3)no2)cc1 [micafungin] (X1-[Orn(4R-OH,5R-OH)]T[Hyp][hTyr(3S-OH,4S-OH,3'-OSO3H)][Gln(3R-OH)][Pro(3S-OH,4S-Me)]; lactam 1-C) as the entry.
0.38

Value source: paper PMC10051811
